FYI, the data here is from patent US20230312550A1.

target_or_test_system: hFAP (M39-A757) (Homo sapiens (Human))
Sequence (Q12884 39-757): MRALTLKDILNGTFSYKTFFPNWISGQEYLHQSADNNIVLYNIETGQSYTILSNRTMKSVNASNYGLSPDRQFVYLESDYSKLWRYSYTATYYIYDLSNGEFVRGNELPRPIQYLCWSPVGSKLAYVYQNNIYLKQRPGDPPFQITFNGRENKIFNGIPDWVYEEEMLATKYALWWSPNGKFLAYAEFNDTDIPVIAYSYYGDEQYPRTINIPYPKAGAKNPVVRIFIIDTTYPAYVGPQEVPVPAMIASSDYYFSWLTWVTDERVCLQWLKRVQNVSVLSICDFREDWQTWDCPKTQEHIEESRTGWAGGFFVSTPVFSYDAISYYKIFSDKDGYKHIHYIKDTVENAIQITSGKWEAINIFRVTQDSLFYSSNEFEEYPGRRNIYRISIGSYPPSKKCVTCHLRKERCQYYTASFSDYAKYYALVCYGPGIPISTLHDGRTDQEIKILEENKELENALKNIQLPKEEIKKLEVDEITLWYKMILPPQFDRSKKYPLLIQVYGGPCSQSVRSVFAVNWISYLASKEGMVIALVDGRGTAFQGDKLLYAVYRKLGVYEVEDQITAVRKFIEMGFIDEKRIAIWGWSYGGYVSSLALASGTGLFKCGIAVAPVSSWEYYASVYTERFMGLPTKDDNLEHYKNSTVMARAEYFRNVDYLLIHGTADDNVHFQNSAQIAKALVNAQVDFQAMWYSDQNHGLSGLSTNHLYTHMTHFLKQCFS
method: hFAP binding assay (surface plasmon resonance)
assay_conditions: SPR, 20° C., single cycle kinetics
measured_endpoint: hFAP Binding assay k(off) (s⁻¹)
Just the number please, in s⁻¹, no unit attached.

Consider the worked cases shown below.
C[C@H]1N(c2ccc3nccc(C(=O)NCC(=O)N4CSC[C@H]4C#N)c3c2)CC1(F)F (mixture of isomers) [Example 159] : 0.000092
N#C[C@@H]1CSCN1C(=O)CNC(=O)c1ccnc2ccc(-n3ccnc3-c3ccccc3)cc12 [Example 217] : 0.0013
N#C[C@@H]1CSCN1C(=O)CNC(=O)c1ccnc2ccc(N3CC4CCC(C3)O4)cc12 [Example 79] : 0.00012
CC1(CC(F)(F)F)CN(c2ccc3nccc(C(=O)NCC(=O)N4CSC[C@H]4C#N)c3c2)C1 [Example 131] : 0.00014
CC1(C)COC12CN(c1ccc3nccc(C(=O)NCC(=O)N4CSC[C@H]4C#N)c3c1)C2 [Example 18] : 0.000059

The compound listed as N#C[C@@H]1CSCN1C(=O)CNC(=O)c1ccnc2ccc(N3CC4(CC(F)C4)C3)cc12 [Example 155] has a reported hFAP Binding assay k(off) of 0.000050

CCC1(F)CN(c2ccc3nccc(C(=O)NCC(=O)N4CSC[C@H]4C#N)c3c2)C1 [Example 138] has a reported hFAP Binding assay k(off) of 0.000075

What the record says about C[C@H]1CCCN(c2ccc3nccc(C(=O)NCC(=O)N4CSC[C@H]4C#N)c3c2)C1=O (single isomer, unassigned) [Example 203] : hFAP Binding assay k(off) is 0.000063

hFAP Binding assay k(off) recorded for this compound, N#C[C@@H]1CSCN1C(=O)CNC(=O)c1ccnc2ccc(N3C[C@@H]4C[C@H]3CO4)cc12 [Example 75] , is 0.000024

What the record says about N#C[C@@H]1CSCN1C(=O)CNC(=O)c1ccnc2ccc(N3C[C@H](O)C(F)(F)C3)cc12 (mixture of isomers) [Example 224] : hFAP Binding assay k(off) is 0.000068

The value of hFAP Binding assay k(off) measured for the compound COC[C@@H]1CN(c2ccc3nccc(C(=O)NCC(=O)N4CSC[C@H]4C#N)c3c2)CCO1 [Example 93] turned out to be 0.000080
